Test: protein stability index of a GFP-peptide fusion (yeast GPS) (PSI 1-4); higher = more stable; sorted into four equal gates, so the index is relative within each strain
Settings: pdr5∆
Here the recorded protein stability index is given for each entry.
test.readout: protein stability index

| residue.codes | test.readout | result.value |
| --- | --- | --- |
| HEFKLIVGKKIQEFLVV [GRR1] | protein stability index | 2.09 |
| EPTYRLVRYGLAEKVEK [RPS24A] | protein stability index | 3.42 |
| MANLSQIYTQRAYMRPL [SCL1] | protein stability index | 1.46 |
| EIEIEGVMSLLQKSSKS [YAR002W/NUP60] | protein stability index | 3.05 |
| QFTSSLFKALKVILNER [RGR1] | protein stability index | 2.4 |
| SSTGNANTSNNLFGATA [YJL041W/NSP1] | protein stability index | 3.31 |
| VKRRRDMLEHINLAMNE [SRB4] | protein stability index | 1.33 |
